# measured target: T1, Cynomolgus CD3εδ Fc heterodimer (Cy CD3ε Fc + CD3δ Fc-HIS) (cynomolgus, UniProt Q95LI5 22-117; Q95LI8 22-100)
# T1 construct: range 22-117;range 22-100; Made in HEK 293 cells with a heterologous signal peptide; also called Cy CD3εδ-Fc; cyno CD3εδ Fc; not shown: Fc; Fc followed by HIS tag
# T1 sequence (Q95LI5 22-117, stated change not applied, form in doubt, chain 1 of 2): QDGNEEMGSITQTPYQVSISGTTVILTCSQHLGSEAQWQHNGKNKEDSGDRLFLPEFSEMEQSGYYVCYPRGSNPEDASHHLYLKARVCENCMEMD
# T1 sequence (Q95LI8 22-100, stated change not applied, form in doubt, chain 2 of 2): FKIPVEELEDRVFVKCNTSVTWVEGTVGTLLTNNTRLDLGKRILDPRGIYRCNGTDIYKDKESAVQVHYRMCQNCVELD
# assay procedure: BLI (Octet), CD3εδ Fc on AHC sensor, 100 nM Fab
parameter: Kd

Answered examples (6):
Antibody No. V003 (ADI-67446) Fab (Fab, V domains shown, Fab by papain digestion of the IgG1) VH: QVQLVQSGAEVKKPGASVKVSCKASGFDIKDYYMHWVRQAPGQRLEWMGWIELENADTIYDAKFQGRVTITRDTSASTAYMELSSLRSEDTAVYYCARDAYGRYFYDVWGQGTLVTVSS VL: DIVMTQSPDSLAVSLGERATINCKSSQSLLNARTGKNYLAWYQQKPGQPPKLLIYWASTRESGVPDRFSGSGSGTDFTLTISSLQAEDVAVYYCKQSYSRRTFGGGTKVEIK :: 4.18 nM
Antibody No. V010 (ADI-70327) Fab (Fab, V domains shown, Fab by papain digestion of the IgG1) VH: QVQLVQSGAEVKKPGASVKVSCKASGFDIKDYYMHWVRQAPGQRLEWIGWIELENDDTVYDAKFQGRVTITRDTSASTAYMELSSLRSEDTAVYYCARDAYGRYFYDVWGQGTLVTVSS VL: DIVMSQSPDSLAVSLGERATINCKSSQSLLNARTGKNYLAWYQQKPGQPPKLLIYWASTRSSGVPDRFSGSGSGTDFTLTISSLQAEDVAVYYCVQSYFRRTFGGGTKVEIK :: 1.91 nM
Antibody No. V007 (ADI-67450) Fab (Fab, V domains shown, Fab by papain digestion of the IgG1) VH: QVQLVQSGAEVKKPGASVKVSCKASGFNIDDYYMHWVRQAPGQRLEWMGWIDLENANTIDDAKFQGRVTITRDTSASTAYMELSSLRSEDTAVYYCARDAYGRYFYDVWGQGTLVTVSS VL: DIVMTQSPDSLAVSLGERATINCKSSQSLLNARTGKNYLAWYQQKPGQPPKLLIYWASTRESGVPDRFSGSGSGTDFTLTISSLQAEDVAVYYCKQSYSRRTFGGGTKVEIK :: 5.03 nM
Antibody No. V002 (ADI-67445) Fab (Fab, V domains shown, Fab by papain digestion of the IgG1) VH: QVQLVQSGAEVKKPGASVKVSCKASGFNIKDYYMHWVRQAPGQRLEWMGWIDLENAETIYDAKFQDRVTITRDTSASTAYMELSSLRSEDTAVYYCARDAYGRYFYDEWGQGTLVTVSS VL: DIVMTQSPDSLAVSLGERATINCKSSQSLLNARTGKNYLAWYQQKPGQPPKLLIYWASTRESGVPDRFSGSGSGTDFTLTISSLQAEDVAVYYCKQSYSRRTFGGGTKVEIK :: 7.33 nM
Antibody No. V008 (ADI-70325) Fab (Fab, V domains shown, Fab by papain digestion of the IgG1) VH: QVQLVQSGAEVKKPGASVKVSCKASGFNIKDYYMHWVRQAPGQRLEWIGWIDLENAETVYDAKFQDRVTITRDTSASTAYMELSSLRSEDTAVYYCARDAYGRYFYDVWGQGTLVTVSS VL: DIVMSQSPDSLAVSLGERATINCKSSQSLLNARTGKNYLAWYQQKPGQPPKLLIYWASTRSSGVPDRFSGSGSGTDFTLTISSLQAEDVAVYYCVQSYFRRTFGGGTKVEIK :: 0.91 nM
Antibody No. V005 (ADI-67448) Fab (Fab, V domains shown, Fab by papain digestion of the IgG1; VH as printed is identical to that of V004) VH: QVQLVQSGAEVKKPGASVKVSCKASGFNIDDYYMHWVRQAPGQRLEWMGWIDLENDNTIYDAKFQGRVTITRDTSASTAYMELSSLRSEDTAVYYCARDAYGRYFYDVWGQGTLVTVSS VL: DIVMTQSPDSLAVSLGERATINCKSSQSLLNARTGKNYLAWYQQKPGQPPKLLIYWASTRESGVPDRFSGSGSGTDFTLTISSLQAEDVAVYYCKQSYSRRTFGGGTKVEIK :: 6.06 nM

Now for a further binder.
Look up and report measured Kd for this entry: Antibody No. V011 (ADI-70328) Fab (Fab, V domains shown, Fab by papain digestion of the IgG1) VH: QVQLVQSGAEVKKPGASVKVSCKASGFNIDDYYMHWVRQAPGQRLEWIGWIDLENDNTVYDAKFQGRVTITRDTSASTAYMELSSLRSEDTAVYYCARDAYGRYFYDVWGQGTLVTVSS VL: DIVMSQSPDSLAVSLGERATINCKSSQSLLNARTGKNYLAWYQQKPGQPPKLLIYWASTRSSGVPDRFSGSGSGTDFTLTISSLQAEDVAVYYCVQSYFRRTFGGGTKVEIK 0.86 nM

Taken from patent US20240317858A1.
